In this section we review reported EC50 values for a set of compounds.
assayed-system: TRβ (Homo sapiens, UniProt P10828)
Sequence (P10828 217-461 limits assumed): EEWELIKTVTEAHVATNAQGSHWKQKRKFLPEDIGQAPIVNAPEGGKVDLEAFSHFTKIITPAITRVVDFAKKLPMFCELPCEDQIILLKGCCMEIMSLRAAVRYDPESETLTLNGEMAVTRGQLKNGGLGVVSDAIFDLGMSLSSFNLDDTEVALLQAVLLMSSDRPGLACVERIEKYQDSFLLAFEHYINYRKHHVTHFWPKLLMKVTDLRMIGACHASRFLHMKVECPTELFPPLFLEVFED
assay-explanation: Thyroid-hormone reporter-gene assay, TRβ (Gal4 hybrid, luciferase)
measurement-conditions: HEK293-derived reporter cells, 24 hr treatment, luciferase readout
experimental-readout: EC50

[[record]]
compound = "CC(C)c1c(O)ccc(Cc2ccc(OCC(=O)O)c3c2CCC3)c1F [Compound 2]"
experimental_readout = "EC50"
result = "0.1 to 1 µM"

[[record]]
compound = "CC(C)c1c(O)ccc(Cc2ccc(OCC(=O)O)c(F)c2Cl)c1F [Compound 27]"
experimental_readout = "EC50"
result = "> 1 µM"

[[record]]
compound = "Cc1cc(OCC(=O)O)c2c(c1Cc1ccc(O)c(C(C)c3ccc(F)cc3)c1)CCC2 (stereo not shown) [Compound 8]"
experimental_readout = "EC50"
result = "< 0.01 µM"

[[record]]
compound = "CC(C)c1c(O)ccc(Cc2cc(F)c(OCC(=O)O)cc2Cl)c1F [Compound 29]"
experimental_readout = "EC50"
result = "0.1 to 1 µM"

[[record]]
compound = "CC(C)c1cc(Cc2ccc(OCC(=O)O)c3ccccc23)ccc1O [Compound 14]"
experimental_readout = "EC50"
result = "0.1 to 1 µM"

[[record]]
compound = "CC(C)c1cc(Cc2cc(F)c(OCC(=O)O)cc2C(C)C)ccc1O [Compound 36]"
experimental_readout = "EC50"
result = "0.1 to 1 µM"

[[record]]
compound = "CC(C)c1c(O)ccc(Cc2ccc(OCC(=O)O)cc2Cl)c1F [Compound 20]"
experimental_readout = "EC50"
result = "0.1 to 1 µM"

[[record]]
compound = "CC(C)c1cc(OCC(=O)O)ccc1Cc1ccc(O)c(C(C)C)c1F [Compound 25]"
experimental_readout = "EC50"
result = "0.01 to 0.1 µM"

[[record]]
compound = "CC(C)c1cc(Cc2cc(F)c(OCC(=O)O)c3c2CCC3)ccc1O [Compound 16]"
experimental_readout = "EC50"
result = "> 1 µM"

[[record]]
compound = "C=C(C)c1cc(OCC(=O)O)ccc1Cc1ccc(O)c(C(C)C)c1F [Compound 23]"
experimental_readout = "EC50"
result = "0.1 to 1 µM"

[[record]]
compound = "Cc1cc(OCC(=O)O)c2c(c1Cc1ccc(O)c(C(C)C)c1)CCC2 [Compound 6]"
experimental_readout = "EC50"
result = "0.01 to 0.1 µM"

[[record]]
compound = "CC(C)c1c(O)ccc(Cc2ccc(OCC(=O)O)c(F)c2C(C)C)c1F [Compound 31]"
experimental_readout = "EC50"
result = "> 1 µM"

[[record]]
compound = "CC(C)c1cc(Cc2cc(F)c(OCC(=O)O)cc2C(F)(F)F)ccc1O [Compound 18]"
experimental_readout = "EC50"
result = "> 1 µM"

[[record]]
compound = "CC(C)c1c(O)ccc(Cc2ccc(OCC(=O)O)c3c2C(C)CC3)c1F (stereo not shown) [Compound 4]"
experimental_readout = "EC50"
result = "> 1 µM"

[[record]]
compound = "Cc1cc(OCC(=O)O)c2c(c1Cc1ccc(O)c(C(C)C)c1F)CCC2 [Compound 10]"
experimental_readout = "EC50"
result = "< 0.01 µM"

[[record]]
compound = "CC(C)c1cc(Cc2cc(F)c(OCC(=O)O)c(F)c2Cl)ccc1O [Compound 38]"
experimental_readout = "EC50"
result = "> 1 µM"

